Reference source: patent US11596692B1

molecular target: PD-L1 (Homo sapiens (Human), UniProt Q9NZQ7); assay: PD-L1 surface levels on HEK293T STING reporter cells, high PD-L1; assay type: cell-based
Sequence (Q9NZQ7 19-290): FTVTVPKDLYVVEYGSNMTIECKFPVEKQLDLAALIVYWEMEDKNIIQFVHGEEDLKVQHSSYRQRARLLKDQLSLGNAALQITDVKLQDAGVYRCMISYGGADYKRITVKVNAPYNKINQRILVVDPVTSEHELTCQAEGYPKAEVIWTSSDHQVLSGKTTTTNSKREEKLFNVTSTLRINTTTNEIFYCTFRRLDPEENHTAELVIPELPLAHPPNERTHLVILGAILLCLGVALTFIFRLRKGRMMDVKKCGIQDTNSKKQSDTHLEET
pIC50: −log10 of the molar value.
Task for the reader: assign each of the following molecules its reported pIC50.

Q: Entry CCn1nc(C)cc1C(=O)Nc1nc2cc(C(N)=O)cc(OCCCNC(=O)OCCNC(=O)[C@H](CC(=O)O)NC(=O)[C@H](CC(=O)O)NC(=O)[C@H](CCCNC(=N)N)NC(=O)[C@H](CC(=O)O)NC(=O)CCCN3CCc4c(nc(C(=O)Nc5cccc(-c6cccc(NC(=O)c7nc8c(n7C)CCN(CCCC(=O)O)C8)c6Cl)c5Cl)n4C)C3)c2n1C/C=C/Cn1c2nc(-c3cc(C)nn3CC)ncc2c2cc(C(N)=O)cc(OC)c21 [Example 24] has what pIC50?
Ans: > 7.30

Q: Let us now turn to CCn1nc(C)cc1C(=O)Nc1nc2cc(C(N)=O)cc(OC)c2n1C/C=C/Cn1c(NC(=O)c2cc(C)nn2CC)nc2cc(C(N)=O)cc(OCCCNC(=O)[C@H](CC(=O)O)NC(=O)[C@H](CCCNC(=N)N)NC(=O)[C@H](CC(=O)O)NC(=O)[C@H](CC(=O)O)NC(=O)CCCN3CCc4c(nc(C(=O)Nc5cccc(-c6cccc(NC(=O)c7nc8c(n7C)CCN(CCCC(=O)O)C8)c6Cl)c5Cl)n4C)C3)c21 [Example 16]
Ans: > 7.30

Q: Thanks! And CCn1nc(C)cc1C(=O)Nc1nc2cc(C(N)=O)cc(OC)c2n1C/C=C/Cn1c(NC(=O)c2cc(C)nn2CC)nc2cc(C(N)=O)cc(OCCCNC(=O)[C@H](CC(=O)O)NC(=O)[C@H](CC(=O)O)NC(=O)[C@H](CCCNC(=N)N)NC(=O)[C@H](CC(=O)O)NC(=O)CCCN3CCc4c(nc(C(=O)Nc5cccc(-c6cccc(NC(=O)c7nc8c(n7C)CCN(CCCC(=O)O)C8)c6Cl)c5Cl)n4C)C3)c21 [Example 1] ?
Ans: > 7.30

###

tested on: IRF3 activation in PD-L1 low HEK293T STING reporter cell line; experiment: IRF3 activation in HEK293T STING reporter cells, low PD-L1; type: cell-based, human; conditions: 20 hours, read-out: IRF Activation EC50 (nM), Low PD-L1
Kindly supply the reported EC50 values for the records listed here.

Q: Suppose we examine the compound CCn1nc(C)cc1C(=O)Nc1nc2cc(C(N)=O)cc(OC)c2n1C/C=C/Cn1c(NC(=O)c2cc(C)nn2CC)nc2cc(C(N)=O)cc(OCCCNC(=O)[C@H](CC(=O)O)NC(=O)[C@H](CC(=O)O)NC(=O)[C@H](CCCNC(=N)N)NC(=O)[C@H](CC(=O)O)NC(=O)[C@H](CC(=O)O)NC(=O)[C@H](CC(=O)O)NC(=O)[C@H](CCCNC(=N)N)NC(=O)[C@H](CC(=O)O)NC(=O)CCCN3CCc4c(nc(C(=O)Nc5cccc(-c6cccc(NC(=O)c7nc8c(n7C)CCN(CCCC(=O)O)C8)c6Cl)c5Cl)n4C)C3)c21 [Example 15] ; what EC50 value has been reported?
Ans: 50 to 200 nM

Q: Can you handle CCn1nc(C)cc1C(=O)Nc1nc2cc(C(N)=O)cc(OCCCNC(=O)[C@H](CC(=O)O)NC(=O)[C@H](CC(=O)O)NC(=O)[C@H](CCCNC(=N)N)NC(=O)[C@H](CC(=O)O)NC(=O)CCCN3CCc4c(nc(C(=O)Nc5cccc(-c6cccc(NC(=O)c7nc8c(n7C)CCN(CCCC(=O)O)C8)c6Cl)c5Cl)n4C)C3)c2n1C/C=C/Cn1c2nc(-c3cc(C)nn3CC)ncc2c2cc(C(N)=O)cc(OCCCOC)c21 [Example 23] next?
Ans: 50 to 200 nM

###

system: IRF3 activation in PD-L1 low HEK293T STING reporter cell line; experiment: IRF3 activation in HEK293T STING reporter cells, low PD-L1; assay type: cell-based, human; conditions: 20 hours, read-out: IRF Activation EC50 (nM), Low PD-L1
Can you tell me EC50 for the items I'm about to list?

Q: Quick one: EC50 of CCn1nc(C)cc1C(=O)Nc1nc2cc(C(N)=O)cc(OC)c2n1C/C=C/Cn1c(NC(=O)c2cc(C)nn2CC)nc2cc(C(N)=O)cc(OCCCNC(=O)CCNC(=O)OCc3ccc(NC(=O)[C@H](CCCNC(N)=O)NC(=O)[C@@H](NC(=O)CCCN4CCc5c(nc(C(=O)Nc6cccc(-c7cccc(NC(=O)c8nc9c(n8C)CCN(CCCC(=O)N[C@@H](CC(=O)O)C(=O)O)C9)c7Cl)c6Cl)n5C)C4)C(C)C)cc3)c21 ?
Ans: 200 to 1000 nM

Q: Repeat for the following molecule: CCn1nc(C)cc1C(=O)Nc1nc2cc(C(N)=O)cc(OC)c2n1C/C=C/Cn1c(NC(=O)c2cc(C)nn2CC)nc2cc(C(N)=O)cc(OCCCNC(=O)[C@H](CC(=O)O)NC(=O)[C@H](CC(=O)O)NC(=O)[C@H](CCCNC(=N)N)NC(=O)[C@H](CC(=O)O)NC(=O)CCCN3CCc4c(nc(C(=O)Nc5cccc(-c6cccc(NC(=O)c7nc8c(n7C)CCN(CCCC(=O)O)C8)c6Cl)c5Cl)n4C)C3)c21
Ans: 200 to 1000 nM

Q: Also CCn1nc(C)cc1C(=O)Nc1nc2cc(C(N)=O)cc(OC)c2n1C/C=C/Cn1c(NC(=O)c2cc(C)nn2CC)nc2cc(C(N)=O)cc(OCCCNC(=O)CCNC(=O)OCCSSC[C@H](NC(=O)[C@H](CC(=O)O)NC(=O)[C@H](CC(=O)O)NC(=O)[C@H](CCCNC(=N)N)NC(=O)[C@H](CC(=O)O)NC(=O)CCCN3CCc4c(nc(C(=O)Nc5cccc(-c6cccc(NC(=O)c7nc8c(n7C)CCN(CCCC(=O)O)C8)c6Cl)c5Cl)n4C)C3)C(=O)O)c21 ?
Ans: 200 to 1000 nM

Q: How about this molecule: CCn1nc(C)cc1C(=O)Nc1nc2cc(C(N)=O)cc(OC)c2n1C/C=C/Cn1c(NC(=O)c2cc(C)nn2CC)nc2cc(C(N)=O)cc(OCCCNC(=O)[C@H](CC(=O)O)NC(=O)[C@H](CCCNC(=N)N)NC(=O)[C@H](CC(=O)O)NC(=O)[C@H](CC(=O)O)NC(=O)CCCN3CCc4c(nc(C(=O)Nc5cccc(-c6cccc(NC(=O)c7nc8c(n7C)CCN(CCCC(=O)O)C8)c6Cl)c5Cl)n4C)C3)c21
Ans: < 50 nM

Q: What about CCn1nc(C)cc1C(=O)Nc1nc2cc(C(N)=O)cc(OC)c2n1C/C=C/Cn1c(NC(=O)c2cc(C)nn2CC)nc2cc(C(N)=O)cc(OCCCNC(=O)[C@@H](NC(=O)[C@H](CC(=O)O)NC(=O)[C@H](CC(=O)O)NC(=O)[C@H](CCCNC(=N)N)NC(=O)[C@H](CC(=O)O)NC(=O)CCCN3CCc4c(nc(C(=O)Nc5cccc(-c6cccc(NC(=O)c7nc8c(n7C)CCN(CCCC(=O)O)C8)c6Cl)c5Cl)n4C)C3)C(C)(C)C)c21 ?
Ans: 50 to 200 nM

Q: Queued: CCn1nc(C)cc1C(=O)Nc1nc2cc(C(N)=O)cc(OC)c2n1C/C=C/Cn1c(NC(=O)c2cc(C)nn2CC)nc2cc(C(N)=O)cc(OCCCNC(=O)[C@H](CC(=O)O)NC(=O)[C@H](CC(=O)O)NC(=O)[C@H](CC(=O)O)NC(=O)[C@H](CC(=O)O)NC(=O)[C@H](CC(=O)O)NC(=O)[C@H](CC(=O)O)NC(=O)[C@H](CC(=O)O)NC(=O)CCCN3CCc4c(nc(C(=O)Nc5cccc(-c6cccc(NC(=O)c7nc8c(n7C)CCN(CCCC(=O)O)C8)c6Cl)c5Cl)n4C)C3)c21
Ans: 50 to 200 nM

Q: Check CCn1nc(C)cc1C(=O)Nc1nc2cc(C(N)=O)cc(OC)c2n1C/C=C/Cn1c(NC(=O)c2cc(C)nn2CC)nc2cc(C(N)=O)cc(OCCCNC(=O)[C@H](CC(=O)O)NC(=O)[C@H](CC(=O)O)NC(=O)[C@H](CC(=O)O)NC(=O)[C@H](CC(=O)O)NC(=O)CCCN3CCc4c(nc(C(=O)Nc5cccc(-c6cccc(NC(=O)c7nc8c(n7C)CCN(CCCC(=O)O)C8)c6Cl)c5Cl)n4C)C3)c21 too.
Ans: 50 to 200 nM

Q: Now consider CCn1nc(C)cc1C(=O)Nc1nc2cc(C(N)=O)cc(OC)c2n1C/C=C/Cn1c(NC(=O)c2cc(C)nn2CC)nc2cc(C(N)=O)cc(OCCCNC(=O)[C@H](CC(=O)O)NC(=O)[C@H](CC(=O)O)NC(=O)[C@H](CCCNC(=N)N)NC(=O)[C@H](CC(=O)O)NC(=O)CCNC(=O)C3CCN(Cc4cc(C#N)c5oc(-c6cccc(-c7cccc(Nc8nc(C(F)F)nc9cc(CN%10CC[C@@H](O)C%10)cnc89)c7C)c6C)nc5c4)CC3)c21 .
Ans: 50 to 200 nM

Q: CCn1nc(C)cc1C(=O)Nc1nc2cc(C(N)=O)cc(OC)c2n1C/C=C/Cn1c(NC(=O)c2cc(C)nn2CC)nc2cc(C(N)=O)cc(OCCCNC(=O)CCNC(=O)OCc3ccc(NC(=O)[C@H](CCCNC(N)=O)NC(=O)[C@@H](CC(=O)Cn4cc(CCNC(=O)[C@H](CC(=O)O)NC(=O)[C@H](CC(=O)O)NC(=O)[C@H](CCCNC(=N)N)NC(=O)[C@H](CC(=O)O)NC(=O)CCCN5CCc6c(nc(C(=O)Nc7cccc(-c8cccc(NC(=O)c9nc%10c(n9C)CCN(CCCC(=O)O)C%10)c8Cl)c7Cl)n6C)C5)nn4)C(C)C)cc3)c21 ?
Ans: 200 to 1000 nM
